Value source: PubChem BioAssay (NCI)

system: NCI-H226 lung; assay: NCI tumour cell line growth inhibition, 48 h
Listed here: items and their measured TGI.
value.kind: TGI (µM)

>  <molecule>
N#Cc1cc(-c2nc3cc(F)ccc3s2)ccc1N

>  <test.system>
NCI-H226 lung

>  <value.kind>
TGI

>  <value.relation.sign>
=

>  <reported>
79.3

$$$$
>  <molecule>
COC(=O)c1c(C(=O)OC)c2ccc(-c3ccc(Cl)cc3)nn2c1C(=O)c1ccc([N+](=O)[O-])cc1

>  <test.system>
NCI-H226 lung

>  <value.kind>
TGI

>  <value.relation.sign>
>

>  <reported>
100

$$$$
>  <molecule>
COC(=O)c1ccccc1C1CN=NC12Cc1c(C)cccc1C2=O (stereo unspecified)

>  <test.system>
NCI-H226 lung

>  <value.kind>
TGI

>  <value.relation.sign>
>

>  <reported>
100

$$$$
>  <molecule>
CCN1C(Cl)=NS(=O)(=O)c2ccccc21

>  <test.system>
NCI-H226 lung

>  <value.kind>
TGI

>  <value.relation.sign>
=

>  <reported>
55.7

$$$$
>  <molecule>
NCCOc1ncccc1/C=C1\C2C=CC=CC2C2C=CC(F)=CC12 (stereo unspecified)

>  <test.system>
NCI-H226 lung

>  <value.kind>
TGI

>  <value.relation.sign>
=

>  <reported>
2.47

$$$$
>  <molecule>
CC(=O)CC1(O)C(=O)c2c(Br)sc(Br)c2C1=O

>  <test.system>
NCI-H226 lung

>  <value.kind>
TGI

>  <value.relation.sign>
>

>  <reported>
100

$$$$
